Target: ~100 representative kinases (Homo sapiens, UniProt P11362)
Construct: Recombinant protein kinase domains with a concentration of 2 μM
Sequence (P11362 22-822): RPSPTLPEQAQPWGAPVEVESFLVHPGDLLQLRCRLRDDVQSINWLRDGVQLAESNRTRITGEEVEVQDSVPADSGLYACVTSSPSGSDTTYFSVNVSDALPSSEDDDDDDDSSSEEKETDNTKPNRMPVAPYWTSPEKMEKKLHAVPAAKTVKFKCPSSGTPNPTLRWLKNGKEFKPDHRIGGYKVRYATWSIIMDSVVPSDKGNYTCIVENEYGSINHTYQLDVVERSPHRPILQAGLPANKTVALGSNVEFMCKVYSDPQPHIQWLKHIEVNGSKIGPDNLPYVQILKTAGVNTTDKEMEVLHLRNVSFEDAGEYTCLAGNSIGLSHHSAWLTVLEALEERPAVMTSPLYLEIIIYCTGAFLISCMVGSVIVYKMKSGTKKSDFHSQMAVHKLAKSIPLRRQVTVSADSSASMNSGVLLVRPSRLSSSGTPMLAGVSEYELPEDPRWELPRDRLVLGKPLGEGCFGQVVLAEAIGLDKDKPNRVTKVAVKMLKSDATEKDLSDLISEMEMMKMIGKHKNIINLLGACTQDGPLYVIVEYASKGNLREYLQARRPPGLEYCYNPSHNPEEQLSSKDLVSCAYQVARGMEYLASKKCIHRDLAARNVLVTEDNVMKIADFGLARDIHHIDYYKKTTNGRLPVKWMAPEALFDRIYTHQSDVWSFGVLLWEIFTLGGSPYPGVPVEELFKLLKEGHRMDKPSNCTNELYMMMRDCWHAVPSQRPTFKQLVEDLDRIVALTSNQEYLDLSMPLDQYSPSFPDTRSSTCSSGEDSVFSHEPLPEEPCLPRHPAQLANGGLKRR
Test: DSF 100 kinase selectivity screen;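 also: compound tested at 20 µM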
Assay type: binding
Conditions: protein FGFR1; average of three replicates
Protocol: Recombinant protein kinase domains with a concentration of 2 μM were mixed with a 20 μM compound solution in dimethyl sulfoxide (DMSO), 20 mM Hepes (pH 7.5), and 500 mM NaCl. SYPRO Orange (5000×, Invitrogen) was added as a fluorescence probe (1μl/ml). Subsequently, temperature-dependent protein unfolding profiles were measured using the QuantStudio 5 realtime PCR machine (Thermo Fisher Scientific, Waltham, MA, USA). […] The temperature was raised with a step rate of 3°C/min. […]
Observed property: dTm (K)
Just the number please, in K, no unit attached.

IN: Give its dTm value. Item: `Cc1ccc(C(=O)Nc2ccc(CN3CCN(C)CC3)c(C(F)(F)F)c2)cc1C#Cc1c[nH]c2ncnc(N3CCOCC3)c12`
OUT: 2.59

IN: One more compound: `CCSc1nc(NC)c2c(-c3cccc(NC(=O)Nc4cc(C(C)(C)C)nn4-c4ccc(C)cc4)c3)c[nH]c2n1`
OUT: 0.60

IN: One more compound: `CC(C)(C)c1cc(NC(=O)Nc2cccc(-c3c[nH]c4ncnc(N5CCOCC5)c34)c2)n(-c2ccc3ncccc3c2)n1`
OUT: 8.37

IN: One more compound: `O=C(Nc1cccc(-c2c[nH]c3ncnc(N4CCOCC4)c23)c1)C1(C(=O)Nc2ccc(F)c(F)c2)CC1`
OUT: 1.11

IN: One more compound: `CC(=O)N1CCN(c2nc(Cl)nc3[nH]cc(-c4cccc(NC(=O)Nc5cc(C(C)(C)C)nn5-c5ccc(C)cc5)c4)c23)CC1`
OUT: 1.76

IN: One more compound: `Cc1cc(NC(=O)C2(C(=O)Nc3ccc(F)cc3)CC2)cc(-c2c[nH]c3ncnc(N4CCOCC4)c23)c1`
OUT: 0.32

IN: One more compound: `O=C(Nc1cccc(-c2c[nH]c3ncnc(N4CCOCC4)c23)c1)C1(C(=O)Nc2ccc(F)c(Cl)c2)CC1`
OUT: 2.20

* * *

Biological target: ~100 representative kinases (Homo sapiens)
Construct: Recombinant protein kinase domains with a concentration of 2 μM
Test: DSF 100 kinase selectivity screen;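 also: compound tested at 20 µM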
Type: binding
Conditions: protein PLK4; average of three replicates
Please use 1 (yes) whenever dTm is not below 7 K, and 0 (no) whenever it is.

IN: Identify whether the reported dTm of the following molecule is 7 K or greater: COc1cc(C(=O)N2CCOCC2)c(F)cc1Nc1nc(N(C)C)c2c(Cl)c[nH]c2n1 [Compound 36]
OUT: 1 (yes)

IN: One more molecule: Cc1cc(NC(=O)C2(C(=O)Nc3cccc(-c4c[nH]c5ncnc(N6CCOCC6)c45)c3)CC2)ccc1F [Compound 20]
OUT: 1 (yes)

IN: One more molecule: Cc1ccc(-n2nc(C(C)(C)C)cc2NC(=O)Nc2cccc(-c3c[nH]c4ncnc(N5CCOCC5)c34)c2)cc1 [Compound 29]
OUT: 0 (no)

IN: One more molecule: Cc1ccc(C(=O)Nc2ccc(CN3CCN(C)CC3)c(C(F)(F)F)c2)cc1C#Cc1cnc2[nH]ncc2c1 [GZD-824, reference compound]
OUT: 0 (no)

IN: One more molecule: Cc1ccc(-n2nc(C(C)(C)C)cc2NC(=O)Nc2cccc(-c3c[nH]c4nc(Cl)nc(N5CCOCC5)c34)c2)cc1 [Compound 30]
OUT: 0 (no)

IN: One more molecule: CC(C)(C)c1cccc(NC(=O)C2(C(=O)Nc3cccc(-c4c[nH]c5ncnc(N6CCOCC6)c45)c3)CC2)c1 [Compound 22]
OUT: 1 (yes)

IN: One more molecule: CC(=O)N1CCN(c2nc(Cl)nc3[nH]cc(-c4cccc(NC(=O)Nc5cc(C(C)(C)C)nn5-c5ccc(C)cc5)c4)c23)CC1 [Compound 31]
OUT: 0 (no)

IN: One more molecule: Cc1cc(NC(=O)C2(C(=O)Nc3ccc(F)cc3)CC2)cc(-c2c[nH]c3ncnc(N4CCOCC4)c23)c1 [Compound 6]
OUT: 1 (yes)

IN: One more molecule: CCSc1nc(NC)c2c(-c3cccc(NC(=O)Nc4cc(C(C)(C)C)nn4-c4ccc(C)cc4)c3)c[nH]c2n1 [Compound 32]
OUT: 0 (no)

IN: One more molecule: O=C(Nc1cccc(-c2c[nH]c3ncnc(N4CCOCC4)c23)c1)C1(C(=O)Nc2ccc(F)c(Br)c2F)CC1 [Compound 26]
OUT: 0 (no)

IN: One more molecule: CN[C@@H]1C[C@H]2O[C@@](C)([C@@H]1OC)n1c3ccccc3c3c4c(c5c6ccccc6n2c5c31)C(=O)NC4 [Staurosporine]
OUT: 1 (yes)

IN: One more molecule: COc1ccc(NC(=O)C2(C(=O)Nc3cccc(-c4c[nH]c5ncnc(N6CCOCC6)c45)c3)CC2)cc1 [Compound 16]
OUT: 0 (no)

IN: One more molecule: O=C(Nc1ccc(Cl)cc1)C1(C(=O)Nc2cccc(-c3c[nH]c4ncnc(N5CCOCC5)c34)c2)CC1 [Compound 13]
OUT: 1 (yes)

IN: One more molecule: O=C(Nc1cccc(-c2c[nH]c3ncnc(N4CCOCC4)c23)c1)C1(C(=O)Nc2cc(Br)c(F)cc2F)CC1 [Compound 25]
OUT: 0 (no)

IN: One more molecule: O=C(Nc1cccc(-c2c[nH]c3ncnc(N4CCOCC4)c23)c1)c1cccn(-c2ccc(F)cc2)c1=O [Compound 4]
OUT: 1 (yes)

IN: One more molecule: C[C@@H]1CN(c2cc(-c3n[nH]c4ccc(OC5(C)CC5)cc34)ncn2)C[C@H](C)O1 [MLi2]
OUT: 0 (no)

IN: One more molecule: COc1cc2c(Oc3ccc(NC(=O)C4(C(=O)Nc5ccc(F)cc5)CC4)cc3F)ccnc2cc1OCCCN1CCOCC1 [Foretinib, reference compound]
OUT: 1 (yes)

IN: One more molecule: Cn1cc(-c2c[nH]c3ncnc(N4CCOCC4)c23)cc1C#N [PFE-360]
OUT: 0 (no)

IN: One more molecule: O=C(Nc1cccc(-c2c[nH]c3ncnc(N4CCOCC4)c23)c1)C1(C(=O)Nc2ccc(F)c(Cl)c2)CC1 [Compound 18]
OUT: 1 (yes)

IN: One more molecule: COc1cc(NC(=O)C2(C(=O)Nc3cccc(-c4c[nH]c5ncnc(N6CCOCC6)c45)c3)CC2)ccc1F [Compound 21]
OUT: 1 (yes)

IN: One more molecule: Cc1ccc(C(=O)Nc2ccc(CN3CCN(C)CC3)c(C(F)(F)F)c2)cc1C#Cc1c[nH]c2ncnc(N3CCOCC3)c12 [Compound 1]
OUT: 0 (no)

IN: One more molecule: O=C(Nc1ccc(F)cc1)C1(C(=O)Nc2cccc(-c3c[nH]c4ncnc(N5CCOCC5)c34)c2)CC1 [Compound 2]
OUT: 1 (yes)

IN: One more molecule: CNC(=O)c1cc(Oc2ccc(NC(=O)Nc3cc(C(C)(C)C)nn3-c3ccc4ncccc4c3)c(F)c2)ccn1 [Rebastinib, reference compound]
OUT: 0 (no)

IN: One more molecule: O=C(Nc1cccc(-c2c[nH]c3ncnc(N4CCOCC4)c23)c1)C1(C(=O)Nc2ccc(F)c(Br)c2)CC1 [Compound 19]
OUT: 0 (no)

IN: One more molecule: Cc1ccc(NC(=O)C2(C(=O)Nc3cccc(-c4c[nH]c5ncnc(N6CCOCC6)c45)c3)CC2)cc1 [Compound 14]
OUT: 1 (yes)
